B1: VH:VL chains; a variant is named by its letters at X, in order (parent)
chain 1: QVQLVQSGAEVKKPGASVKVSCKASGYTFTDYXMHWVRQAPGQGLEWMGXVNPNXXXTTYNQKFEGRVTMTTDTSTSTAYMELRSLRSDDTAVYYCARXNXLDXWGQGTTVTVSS
chain 2: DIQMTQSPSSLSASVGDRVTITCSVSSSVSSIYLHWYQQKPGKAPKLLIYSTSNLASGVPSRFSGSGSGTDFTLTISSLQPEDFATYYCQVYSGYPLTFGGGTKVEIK

- Variants of: B1
- methodNotes: yeast display scFab, FACS + sequencing
- testConditions: with MET
The list shows a part of the results. No count for the full screen is at hand.
quantityKind: antigen binding call

DREEGSGD = no binding
YAGEGFGV = no binding
SETGGAGD = no binding
DATGGAGD = no binding

## Input Fill in reported antigen binding call for this entry: STAESDLD
## Output no binding

## Input Input YKGRGASS , output reported antigen binding call.
## Output binds

## Input Specify measured antigen binding call for VKGRSDGV .
## Output binds

## Input Supply recorded antigen binding call for VKGRADVF here.
## Output no binding

## Input Return the recorded antigen binding call value; entry: YKGGSAAA
## Output binds

## Input Note antigen binding call for the variant shown: YKGRGVGV
## Output binds

## Input Quote antigen binding call reported for YARETDVV please.
## Output no binding

## Input For the variant VEREADWF , report antigen binding call.
## Output no binding

## Input Give antigen binding call for the following variant: YRTGGAGD
## Output binds

## Input Return reported antigen binding call. Input variant: VRTEDDVA
## Output no binding
